- assay-overview: Aqueous stability by RP-HPLC in 1:1 DMSO:H2O over 72 h
- Assay type: physicochemical
- settings: room temperature, 24 h
Provide the recorded minor RP-HPLC peak, share of the total area after 24 h for the entries that follow.
Answer with a number only, understood to be in %.

State the recorded minor RP-HPLC peak, share of the total area after 24 h for this entry: CCCC[N+](CCCC)=C1[S][Au-]2([S]1)[c]1ccccc1C(OC)c1cccc[n+]12.F[P-](F)(F)(F)(F)F (racemic)
2

State the recorded minor RP-HPLC peak, share of the total area after 24 h for this entry: F[P-](F)(F)(F)(F)F.c1cc[c]2c(c1)Cc1cccc[n+]1[Au-]21[S]C(=[N+]2CCCC2)[S]1 (stereo not shown)
5

State the recorded minor RP-HPLC peak, share of the total area after 24 h for this entry: CC[N+](=C1[S][Au-]2([S]1)[c]1ccccc1Cc1cccc[n+]12)c1ccccc1.F[P-](F)(F)(F)(F)F (stereo not shown)
4

State the recorded minor RP-HPLC peak, share of the total area after 24 h for this entry: CC[N+](=C1[S][Au-]2([S]1)[c]1ccccc1C(OC)c1cccc[n+]12)c1ccccc1.F[P-](F)(F)(F)(F)F (racemic)
5
